target: KIF18a-microtubule complex (Homo sapiens (Human), UniProt Q8NI77); assay: Binding kinetics to KIF18a-microtubule complex (global progress curve analysis); settings: KIF18A 0.25 nM, up to 24 hr
Sequence (Q8NI77 1-374, one chain of several): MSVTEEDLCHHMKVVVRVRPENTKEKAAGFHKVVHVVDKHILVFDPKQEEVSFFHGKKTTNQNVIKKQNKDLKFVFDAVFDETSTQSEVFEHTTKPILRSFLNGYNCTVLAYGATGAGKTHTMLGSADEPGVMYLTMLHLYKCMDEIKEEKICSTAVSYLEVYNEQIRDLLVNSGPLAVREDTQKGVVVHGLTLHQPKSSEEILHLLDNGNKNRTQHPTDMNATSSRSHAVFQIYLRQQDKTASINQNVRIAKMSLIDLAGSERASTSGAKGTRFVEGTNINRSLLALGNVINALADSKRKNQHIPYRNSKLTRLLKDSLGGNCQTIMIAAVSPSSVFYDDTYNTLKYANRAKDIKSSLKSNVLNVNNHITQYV
reported.property: kon (on-rate from binding kinetics assay) (nM⁻¹ h⁻¹)

Example entries and their recorded answers appear below.
[[record]]
structure_string = "O=S(=O)(CCO)Nc1ccc(-n2cc(-c3cccc(N4CCC(F)(F)CC4)n3)nn2)c(N2CCC3(CC2)CC3)c1"
measurement_unit = "nM⁻¹ h⁻¹"
recorded_value = 0.11

[[record]]
structure_string = "CS(=O)(=O)Nc1ccc(-c2nnc(-c3cccc(N4CCOCC4)n3)[nH]2)c(N2CCC3(CC2)CC3)c1"
measurement_unit = "nM⁻¹ h⁻¹"
recorded_value = 0.014

[[record]]
structure_string = "CS(=O)(=O)Nc1ccc(-c2ncc(-c3cccc(N4CCC(F)(F)CC4)n3)[nH]2)c(N2CCC3(CC2)CC3)c1"
measurement_unit = "nM⁻¹ h⁻¹"
recorded_value = 0.024


1: Cc1cc(-c2cn(-c3ccc(NS(=O)(=O)CCO)cc3N3CCCCC3)nn2)nc(N2CCC(F)(F)CC2)c1
2: Cc1cc(-c2cn(-c3ccc(NS(=O)(=O)CCO)cc3N3CCC4(CC3)CC4)nn2)nc(N2CCC(F)(F)CC2)n1
3: CS(=O)(=O)Nc1ccc(-c2ncc(-c3cccc(N4CCOCC4)n3)[nH]2)c(N2CCC3(CC2)CC3)c1
4: CS(=O)(=O)Nc1ccc(-n2cc(-c3cccc(N4CCC(F)(F)CC4)n3)nn2)c(N2CCC3(CC2)CC3)c1
Ask: # sort list by recorded kon (on-rate from binding kinetics assay), greatest to least Returns: the labels listed in the requested order.
Result: 4, 1, 2, 3
(4: 0.13 nM⁻¹ h⁻¹, 1: 0.079 nM⁻¹ h⁻¹, 2: 0.052 nM⁻¹ h⁻¹, 3: 0.017 nM⁻¹ h⁻¹)

====

biological target: hKIF18A (1-374) (Homo sapiens (Human))
Sequence (Q8NI77 1-374): as the sequence (Q8NI77 1-374, one chain of several) above
pIC50: −log10 of the molar value.
reported.property: pIC50

Example entries and their recorded answers appear below.
[[record]]
compound = "CS(=O)(=O)Nc1ccc(-c2ncc(-c3cccc(N4CCC(F)(F)CC4)n3)[nH]2)c(N2CCC3(CC2)CC3)c1"
target_of_assay = "hKIF18A (1-374) (Homo sapiens (Human))"
recorded_value = 7.68

[[record]]
compound = "CC(CO)S(=O)(=O)Nc1ccc(-n2cc(-c3cccc(N4CCC(F)(F)CC4)n3)nn2)c(N2CCC3(CC2)CC3)c1 (stereo not drawn)"
target_of_assay = "hKIF18A (1-374) (Homo sapiens (Human))"
recorded_value = 7.96

[[record]]
compound = "Cc1cc(-c2cn(-c3ccc(NS(=O)(=O)CCO)cc3N3CCCCC3)nn2)nc(N2CCC(F)(F)CC2)n1"
target_of_assay = "hKIF18A (1-374) (Homo sapiens (Human))"
recorded_value = 7.66

[[record]]
compound = "CCS(=O)(=O)Nc1ccc(-n2cc(-c3cc(CO)cc(N4CCC(F)(F)CC4)n3)nn2)c(N2CCC3(CC2)CC3)c1"
target_of_assay = "hKIF18A (1-374) (Homo sapiens (Human))"
recorded_value = 7.54

[[record]]
compound = "O=S(=O)(CCO)Nc1ccc(-c2cn(-c3ccc(F)c(S(=O)(=O)N4CC(F)(F)C4)c3)nn2)c(N2CCC3(CC2)CC3)n1"
target_of_assay = "hKIF18A (1-374) (Homo sapiens (Human))"
recorded_value = 7.17

[[record]]
compound = "CCS(=O)(=O)Nc1ccc(-c2cn(-c3cccc(S(=O)(=O)NC(C)(C)C)c3)nn2)c(N2CCC3(CC2)CC3)c1"
target_of_assay = "hKIF18A (1-374) (Homo sapiens (Human))"
recorded_value = 7.82


I: CS(=O)(=O)Nc1ccc(-n2cc(-c3cccc(N4CCC(F)(F)CC4)n3)nn2)c(N2CCC3(CC2)CC3)c1
II: Cc1cc(-c2cn(-c3ccc(NS(=O)(=O)CCO)cc3N3CCC4(CC3)CC4)nn2)nc(N2CC3CC3C2)n1 (stereo not drawn)
Ask: Field: lower pIC50 | Options: I / II Please reply using the label of the selected record.
Result: I
